Taken from patent US20250270173A1.

assay system: 5-HT2B receptor (Homo sapiens (Human), UniProt P41595)
Sequence (P41595 whole entry, looked up): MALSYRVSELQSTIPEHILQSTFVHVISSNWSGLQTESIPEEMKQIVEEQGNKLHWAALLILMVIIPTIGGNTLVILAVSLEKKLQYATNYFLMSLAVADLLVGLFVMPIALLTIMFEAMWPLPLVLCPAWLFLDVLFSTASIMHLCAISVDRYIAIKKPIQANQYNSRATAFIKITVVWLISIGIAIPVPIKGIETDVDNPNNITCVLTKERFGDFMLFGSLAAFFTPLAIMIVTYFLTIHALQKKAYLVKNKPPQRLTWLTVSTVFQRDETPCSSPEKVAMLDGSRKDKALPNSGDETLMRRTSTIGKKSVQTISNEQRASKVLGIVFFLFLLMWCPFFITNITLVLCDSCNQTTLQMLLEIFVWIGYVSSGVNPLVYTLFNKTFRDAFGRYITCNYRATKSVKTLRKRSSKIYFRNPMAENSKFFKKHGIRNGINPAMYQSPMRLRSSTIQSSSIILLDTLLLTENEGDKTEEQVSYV
experiment: FLIPR Ca2+ flux functional assay at 5-HT2B (HEK293)
condition summary: Ca2+ flux, HEK293, at max concentration
The label depends only on 5-HT2B % Act @ Max Conc.: YES if it is at least 40%, NO if it is smaller.

CCSc1cc(OC)c(CC(C)N)nc1OC (centres unmarked) = YES
CCCCCc1cc(OC)c(CC(N)CC)nc1OC (centres unmarked) = NO
CCCCCCc1cc(OC)c(CC(C)N)nc1OC (centres unmarked) = NO
CCC(N)Cc1nc(OC)c(Cl)cc1OC (centres unmarked) = NO

Now for a further molecule.
input: Record COc1cc(CCNCc2ccccc2OC)c(OC)cc1C [Compound 25D-NBOMe, 25D-NBOMe, reference compound] ; criterion: 5-HT2B % Act @ Max Conc. no lower than 40%. Met?
output: YES
